Target: WT (Human immunodeficiency virus type 1 group M subtype B)
Assay: cell-based
Design: species or system HIV
Each entry below carries its recorded EC50.
measured-endpoint: EC50

{"columns": ["molecule", "assayed-system", "measured-endpoint", "observed"],
 "data": [
  ["Nc1n[nH]c2ccc(CN3C(=O)N(Cc4cccc(OCP(=O)(Oc5ccccc5)Oc5ccccc5)c4)C(Cc4ccccc4)C(O)C(O)C3Cc3ccccc3)cc12 (stereo not shown)", "WT (Human immunodeficiency virus type 1 group M subtype B)", "EC50", "1350 nM"],
  ["Nc1n[nH]c2ccc(CN3C(=O)N(Cc4ccc(OCP(=O)(O)O)cc4)C(Cc4ccccc4)C(O)C(O)C3Cc3ccccc3)cc12 (stereo not shown)", "WT (Human immunodeficiency virus type 1 group M subtype B)", "EC50", "> 12000 nM"],
  ["Nc1n[nH]c2ccc(CN3C(=O)N(Cc4cccc(OCP(=O)(O)Oc5ccccc5)c4)C(Cc4ccccc4)C(O)C(O)C3Cc3ccccc3)cc12 (stereo not shown)", "WT (Human immunodeficiency virus type 1 group M subtype B)", "EC50", "1750 nM"],
  ["Nc1n[nH]c2ccc(CN3C(=O)N(CCCCOCP(=O)(O)O)C(Cc4ccccc4)C(O)C(O)C3Cc3ccccc3)cc12 (stereo not shown)", "WT (Human immunodeficiency virus type 1 group M subtype B)", "EC50", "1760 nM"],
  ["CCOP(=O)(COc1ccc(CC2C(O)C(O)C(Cc3ccccc3)N(Cc3ccccc3)C(=O)N2Cc2ccccc2)cc1)OCC (stereo not shown)", "WT (Human immunodeficiency virus type 1 group M subtype B)", "EC50", "107 nM"],
  ["CCOP(=O)(COCCCCN1C(=O)N(Cc2ccc3[nH]nc(N)c3c2)C(Cc2ccccc2)C(O)C(O)C1Cc1ccccc1)OCC (stereo not shown)", "WT (Human immunodeficiency virus type 1 group M subtype B)", "EC50", "119 nM"],
  ["CCOP(=O)(CCCNC(=O)c1cccc(CN2C(=O)N(Cc3ccc(O)cc3)C(Cc3ccccc3)C(O)C(O)C2Cc2ccccc2)c1)OCC (stereo not shown)", "WT (Human immunodeficiency virus type 1 group M subtype B)", "EC50", "65 nM"],
  ["Nc1n[nH]c2ccc(CN3C(=O)N(Cc4ccc(OCP(=O)(OCc5ccccc5)OCc5ccccc5)cc4)C(Cc4ccccc4)C(O)C(O)C3Cc3ccccc3)cc12 (stereo not shown)", "WT (Human immunodeficiency virus type 1 group M subtype B)", "EC50", "2700 nM"],
  ["CCOP(=O)(COc1cccc(CN2C(=O)N(Cc3ccc4[nH]nc(N)c4c3)C(Cc3ccccc3)C(O)C(O)C2Cc2ccccc2)c1)OCC (stereo not shown)", "WT (Human immunodeficiency virus type 1 group M subtype B)", "EC50", "665 nM"],
  ["Nc1n[nH]c2ccc(CN3C(=O)N(Cc4ccc(OCc5ccccc5)cc4)C(Cc4ccccc4)C(O)C(O)C3Cc3ccccc3)cc12 (stereo not shown)", "WT (Human immunodeficiency virus type 1 group M subtype B)", "EC50", "2120 nM"],
  ["O=C1N(Cc2ccccc2)[C@H](Cc2ccccc2)[C@H](O)[C@@H](O)[C@@H](Cc2ccccc2)N1Cc1ccc2[nH]ncc2c1 [reference compound]", "WT (Human immunodeficiency virus type 1 group M subtype B)", "EC50", "193 nM"],
  ["CCOP(=O)(COc1ccc(CC2C(O)C(O)C(Cc3ccc(O)cc3)N(Cc3ccc(O)cc3)C(=O)N2Cc2ccc(O)cc2)cc1)OCC (stereo not shown)", "WT (Human immunodeficiency virus type 1 group M subtype B)", "EC50", "285 nM"],
  ["CCCCN1C(=O)N(Cc2ccc3[nH]nc(N)c3c2)C(Cc2ccccc2)C(O)C(O)C1Cc1ccccc1 (stereo not shown)", "WT (Human immunodeficiency virus type 1 group M subtype B)", "EC50", "54 nM"]
]}

All values here come from patent US20070190523A1.
